The origin of these recorded values is patent US20120321619A1.

Target: T1, recombinant soluble murine C4.4a (mouse, UniProt Q91YK8 33-343, limits assumed)
T1 construct: also called mouse C4.4a; mC4.4a
T1 sequence (looked up): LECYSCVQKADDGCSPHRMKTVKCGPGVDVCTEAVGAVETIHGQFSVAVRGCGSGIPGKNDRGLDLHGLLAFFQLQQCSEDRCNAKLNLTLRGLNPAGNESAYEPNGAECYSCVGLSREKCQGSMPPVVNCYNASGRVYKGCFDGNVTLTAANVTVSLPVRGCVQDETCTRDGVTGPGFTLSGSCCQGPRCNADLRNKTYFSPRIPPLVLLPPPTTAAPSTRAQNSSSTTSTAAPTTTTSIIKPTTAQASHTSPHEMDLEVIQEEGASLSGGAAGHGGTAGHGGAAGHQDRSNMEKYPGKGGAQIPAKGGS
Assay: direct ELISA, Fab supernatant on coated mouse C4.4a, signal normalized to Fab quantity
Method: Cultures were diluted in 10% Smart Block in PBST and bound to the MTP plates for 1 h at 20° C. After washing with PBST, captured antibodies were incubated with a HRP-coupled anti-lambda antibody (Sigma, A5175) and detected by incubating the plate with 10 μM amplex red substrate (Invitrogen, A12222) for 30 minutes at 20° C. in the dark followed by fluorescence measurement. […]
Kindly supply the reported normalized affinity signal (average) values for the records listed here.
Answers are plain numbers.

Here are 4 binders. What values of normalized affinity signal (average) were reported for them?
1. M31-B01 Fab LC G95bR (Fab, V domains shown, Fab with 3×HA-tag and hexa-histidine tag at the C-terminus of the heavy chain, culture supernatant) VH: EVQLLESGGGLVQPGGSLRLSCAASGFTFSNAWMSWVRQAPGKGLEWVSYISSSGSTIYYADSVKGRFTISRDNSKNTLYLQMNSLRAEDTAVYYCAREGLWAFDYWGQGTLVTVTS VL: QSVLTQPPSASGTPGQRVTISCTGSSSNIGAGYVVHWYQQLPGTAPKLLIYDNNKRPSGVPDRFSGSKSGTSASLAISGLRSEDEADYYCAAWDDRLNRPVFGGGTKLTVLG
2. M31-B01 Fab LC N95aK (Fab, V domains shown, Fab with 3×HA-tag and hexa-histidine tag at the C-terminus of the heavy chain, culture supernatant) VH: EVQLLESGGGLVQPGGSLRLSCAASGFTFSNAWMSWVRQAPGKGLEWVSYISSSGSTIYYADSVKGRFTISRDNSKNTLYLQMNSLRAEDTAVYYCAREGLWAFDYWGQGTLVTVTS VL: QSVLTQPPSASGTPGQRVTISCTGSSSNIGAGYVVHWYQQLPGTAPKLLIYDNNKRPSGVPDRFSGSKSGTSASLAISGLRSEDEADYYCAAWDDRLKGPVFGGGTKLTVLG
3. M31-B01 Fab LC R94M (Fab, V domains shown, Fab with 3×HA-tag and hexa-histidine tag at the C-terminus of the heavy chain, culture supernatant) VH: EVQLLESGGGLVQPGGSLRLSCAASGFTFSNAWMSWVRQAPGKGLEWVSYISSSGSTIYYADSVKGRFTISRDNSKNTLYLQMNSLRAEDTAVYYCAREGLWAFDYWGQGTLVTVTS VL: QSVLTQPPSASGTPGQRVTISCTGSSSNIGAGYVVHWYQQLPGTAPKLLIYDNNKRPSGVPDRFSGSKSGTSASLAISGLRSEDEADYYCAAWDDMLNGPVFGGGTKLTVLG
4. M31-B01 Fab LC W91E (Fab, V domains shown, Fab with 3×HA-tag and hexa-histidine tag at the C-terminus of the heavy chain, culture supernatant) VH: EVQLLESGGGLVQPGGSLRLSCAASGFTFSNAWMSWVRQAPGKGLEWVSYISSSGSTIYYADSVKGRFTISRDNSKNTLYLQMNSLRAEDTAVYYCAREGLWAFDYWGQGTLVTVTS VL: QSVLTQPPSASGTPGQRVTISCTGSSSNIGAGYVVHWYQQLPGTAPKLLIYDNNKRPSGVPDRFSGSKSGTSASLAISGLRSEDEADYYCAAEDDRLNGPVFGGGTKLTVLG

[1.01, 0.12, 0.13, 0.4]
